Documented inhibition of growth at 300 ppm across a set of compounds
Tested on: Botrytis cinerea
Assay: Botrytis cinerea (gray mold) in vitro test, radial growth on potato dextrose agar
Format: cell-based
Conditions: 168 h, 300 ppm in potato dextrose agar, 22° C., 90% relative humidity, seven days, read-out: control compared to the untreated check (radial growth)

Observe how each entry below is paired with its result.
COMPOUND	inhibition of growth at 300 ppm
CCN(C)C=Nc1cc(C)cc(Cc2cccc(C)c2)c1Cl [Compound 17]	≥ 70%
CCN(C)C=Nc1cc(C)cc(Cc2c(F)cccc2F)c1Cl [Compound 91]	≥ 70%
CCN(C)C=Nc1cc(Cl)cc(N(C)c2cccc(F)c2)c1C [Compound 179]	≥ 70%

Note to self: inhibition of growth at 300 ppm recorded for CCN(C)C=Nc1cc(F)cc(Cc2ccccc2Cl)c1C [Compound 142] was ≥ 70%

Note to self: inhibition of growth at 300 ppm recorded for CCN(C)C=Nc1cc(Cl)cc(Cc2ccccc2OC(F)(F)F)c1C [Compound 247] was ≥ 70%

Note to self: inhibition of growth at 300 ppm recorded for CCN(C)C=Nc1cc(Cl)cc(N(C)c2cccc(C)c2)c1C [Compound 160] was ≥ 70%

Note to self: inhibition of growth at 300 ppm recorded for CCN(C)C=Nc1cc(F)cc(Cc2cccc([N+](=O)[O-])c2)c1C [Compound 259] was ≥ 70%

Note to self: inhibition of growth at 300 ppm recorded for CCN(C)C=Nc1cc(F)cc(Cc2cc(F)ccc2C)c1C [Compound 231] was ≥ 70%

Note to self: inhibition of growth at 300 ppm recorded for CCN(C)C=Nc1cc(F)cc(Cc2cccc(C(F)(F)F)c2)c1C [Compound 201] was ≥ 70%
